Recorded values, source PubChem BioAssay (NCI).

- Tested on: DMS 273 small cell lung
- protocolDetails: NCI tumour cell line growth inhibition, 48 h
Listed here: items and their measured TGI.
property: TGI

# molecule, experimentalSystem, result
measured = [
    ("COc1ccc(C2=Nc3ccccc3NC(=O)C2)cc1", "DMS 273 small cell lung", "> 100 µM"),
    ("N#C/C(=C\\c1ccc(O)c(O)c1)C(N)=S", "DMS 273 small cell lung", "> 100 µM"),
    ("COC(=O)C(=O)C1(CCC(C)=O)c2ccccc2-c2c(C)ccc(C)c21 (stereo unspecified)", "DMS 273 small cell lung", "> 100 µM"),
    ("CN(C)C(=O)OC(Cn1cncn1)c1ccc(Cl)cc1Cl (stereo unspecified)", "DMS 273 small cell lung", "> 100 µM"),
    ("C1C[OH+]CC[OH+]CCNCC[OH+]CC[OH+]CCN1.N.[Cl-].[Pt+4]", "DMS 273 small cell lung", "15.7 µM"),
    ("COc1ccc2nc(-c3cccs3)cc(C(O)CN3CCSCC3)c2c1 (stereo unspecified)", "DMS 273 small cell lung", "40 µM"),
]

###

- System: IGROV1 ovarian
- protocolDetails: NCI tumour cell line growth inhibition, 48 h

# compound, qualifyingSign, TGI (µM)
records = [
    ("CCOC(=O)c1c(N)sc2c1C(C(=O)OCC)CC2 (stereo not given)", ">", 100),
    ("OC(c1cc(-c2ccccc2)nc2ccc(Cl)cc12)C1CCCCN1 (stereo not given)", "=", 4.19),
    ("COc1ccc(/C=C(/C#N)C(N)=O)cc1OC", ">", 100),
    ("CN1CC[C@@]2(c3cccc(O)c3)CC(=O)/C(=C/c3ccccc3)[C@H]1C2", "=", 36.2),
    ("NC(=O)N=C(N(Cc1ccccc1)Cc1ccccc1)N(Cc1ccccc1)Cc1ccccc1", ">", 100),
]

###

- Test system: CCRF-CEM leukemia
- protocolDetails: NCI tumour cell line growth inhibition, 48 h
Listed here: items and their measured TGI.

# compound, TGI
records = [
    ("CCOC(=O)c1c(N2CCCC2)nsc1Nc1ccc(F)cc1", "73.7 µM"),
    ("O=C1CC(c2ccc(O)cc2)C2(O1)C(=O)OC(C(O)CO)C2O (stereo unspecified)", "> 100 µM"),
    ("NNC(=O)/C(=C/c1ccc(Cl)cc1Cl)NC(=O)c1ccccc1", "> 100 µM"),
    ("C1C[OH+]CC[OH+]CCNCC[OH+]CC[OH+]CCN1.N.[Cl-].[Pt+4]", "> 100 µM"),
    ("COC(=O)C1=CC2CCCC1(O)C(C(C)=O)C2 (stereo unspecified)", "> 68.3 µM"),
    ("N=c1c2c(C(N)=O)cn(C3OC(CO)C(O)C3O)c2ncn1O (stereo unspecified)", "1.46 µM"),
]

###

Listed here: items and their measured TGI.
- Test system: NCI-H522 lung
- protocolDetails: NCI tumour cell line growth inhibition, 48 h
property: TGI

# compound, experimentalSystem, property, result
rows = [
    ("CCCCCCCCCCCCCCCCN1CC2CCCCC2C1 (configuration not stated)", "NCI-H522 lung", "TGI", "17 µM"),
    ("O=C1c2ccccc2S(=O)(=O)c2c1cccc2[N+](=O)[O-]", "NCI-H522 lung", "TGI", "3.09 µM"),
    ("C#CCOCn1cnc2c(Cl)ncnc21", "NCI-H522 lung", "TGI", "> 100 µM"),
    ("CCC1NC(=O)C1NC(=O)OC (configuration not stated)", "NCI-H522 lung", "TGI", "> 100 µM"),
    ("CCCCCCCCCCCC(=O)Oc1c(Cl)cc(Cl)c(OC(=O)C(=O)Oc2c(Cl)cc(Cl)c(OC(=O)CCCCCCCCCCC)c2Cl)c1Cl", "NCI-H522 lung", "TGI", "> 100 µM"),
    ("CC(=O)N1C(c2[nH]c3ccccc3c2-c2ccccc2)CCN1c1ccccc1 (configuration not stated)", "NCI-H522 lung", "TGI", "> 10 µM"),
    ("O=c1c2nn3c(=O)n(-c4ccccc4)c(=O)c3nn2c(=O)n1-c1ccccc1", "NCI-H522 lung", "TGI", "> 100 µM"),
]

###

- Tested on: COLO 205 colon
- protocolDetails: NCI tumour cell line growth inhibition, 48 h
Listed here: items and their measured TGI.

# molecule, TGI
records = [
    ("COc1ccc(-c2ccc(/C=N/n3c(COc4ccc(Cl)cc4Cl)nn(CN4CCOCC4)c3=S)o2)c([N+](=O)[O-])c1", "> 100 µM"),
    ("O=C1[C@H]2ON(c3ccccc3)C(c3ccccc3Cl)[C@H]2C(=O)N1c1ccc(Cc2ccc(N3C(=O)[C@@H]4ON(c5ccccc5)C(c5ccccc5Cl)[C@@H]4C3=O)cc2)cc1 (some centres undefined)", "> 100 µM"),
    ("O=[N+]([O-])C(C(Cl)=C(Cl)Cl)=C(N(Cc1ccccc1)Cc1ccccc1)N(Cc1ccccc1)Cc1ccccc1", "> 100 µM"),
    ("CSc1ncc2c(C#N)c3sc4ccccc4n3c(=O)c2n1", "> 100 µM"),
    ("COc1cc(/C=C/C(=O)c2ccc(NS(=O)(=O)c3cc([N+](=O)[O-])ccc3C)cc2)cc(OC)c1OC", "14.9 µM"),
    ("C1C[OH+]CC[OH+]CCNCC[OH+]CC[OH+]CCN1.N.[Cl-].[Pt+4]", "> 100 µM"),
    ("O=CC(=C(I)I)c1ccccc1", "6.79 µM"),
    ("CN(C)CCNc1c2c(c(NCCN(C)C)c3[nH]ccc13)C(=O)c1ccccc1C2=O", "> 100 µM"),
    ("C=CCOc1ccc(/C(N=Nc2ccc([N+](=O)[O-])cc2)=N/NC(=O)c2ccccc2)cc1OC", "> 100 µM"),
    ("O=[N+]([O-])c1ccc(-c2csc3nc(-c4ccccc4)nn23)cc1", "> 100 µM"),
    ("Nc1ncnc2ccc(Sc3ccc4ncnc(N)c4c3)cc12", "> 100 µM"),
    ("COc1ccc2c(C)cc(N/N=C(\\C)C=O)nc2c1", "30.6 µM"),
    ("CCCc1[nH]c(SCCCCCCCCSc2nc(-c3ccc(F)cc3)c(CCC)[nH]2)nc1-c1ccc(F)cc1", "> 100 µM"),
    ("N=c1oc2c(Cl)cc(Cl)cc2cc1C(=O)Nc1cccc2ccccc12", "> 32.7 µM"),
    ("C/C(=N/NC(=S)Nc1ccc([N+](=O)[O-])cc1)c1cccc(/C(C)=N\\NC(=S)Nc2ccc([N+](=O)[O-])cc2)n1", "15.7 µM"),
    ("CC1=C(Oc2ccccc2)C(CCC(=O)O)c2c(O)cc(Cl)c(O)c21 (centres undefined)", "> 100 µM"),
    ("O=C1CC(c2ccc(O)cc2)C2(O1)C(=O)OC(C(O)CO)C2O (centres undefined)", "> 100 µM"),
    ("COc1ccc2nc(N/N=C/C(C)=N/Nc3cc(C)c4cc(OC)ccc4n3)cc(C)c2c1", "57.9 µM"),
    ("O=C(/C=C/c1ccccc1)CCN1CCN(CCC(=O)/C=C/c2ccccc2)CC1", "31.1 µM"),
    ("N=C(N)c1ccc(-c2ccc(-c3cc(Cl)cc(Cl)c3)o2)nc1", "3.78 µM"),
    ("Cc1cc(N(CCCl)CCCl)ccc1C=Nc1ccc(-c2csc(Cc3ccccc3)n2)cc1", "34.1 µM"),
    ("N=c1oc2cc(O)ccc2cc1C(=O)NCc1ccccc1", "25.4 µM"),
    ("C=CCOc1ccc(/C(N=Nc2ccc(Cl)cc2)=N/NC(=O)c2ccccc2)cc1OC", "> 100 µM"),
    ("Nn1c(NNC(=O)C(=O)Nc2cc(Cl)c(Cl)cc2Cl)n[nH]c1=S", "> 100 µM"),
    ("COCCN(C(C)=O)C1CCC2(SCCS2)c2[nH]c3ccccc3c21 (centres undefined)", "> 100 µM"),
    ("O=C(CCCCCCC(=O)Nc1ccc(N(CCCl)CCCl)cc1)NO", "19.9 µM"),
    ("COc1ccc(OCc2nc3cc(C(F)(F)F)ccc3nc2-c2ccccc2)cc1", "> 100 µM"),
    ("O=[N+]([O-])C1C2C=CC(C2)[C@H]1c1ccco1 (some centres undefined)", "> 100 µM"),
    ("O=C(COc1ccc2c(=O)cc(-c3ccccc3)oc2c1)N1CCN(c2ccccc2)CC1", "> 100 µM"),
    ("Cn1c(=O)c2c(nc(-n3nc(-c4ccc(Cl)cc4)cc3N)n2C)n(C)c1=O", "> 100 µM"),
    ("CC#C[C@]1(O)CC[C@H]2[C@@H]3CCC4=CC(=O)CCC4=C3[C@@H](c3ccc4c(c3)OCO4)C[C@@]21C", "291 µM"),
    ("CCOC(=O)COc1ccccc1/C=C1\\CCC(CN(C)C)C1=O (centres undefined)", "11.1 µM"),
    ("Cn1cc(-c2ccc3occ(-c4cccc(-c5ccncc5)c4)c3n2)cn1", "> 100 µM"),
    ("O=C1/C(=C\\c2c[nH]c3ccccc23)c2ccccc2N1c1c(Cl)cccc1Cl", "3.27 µM"),
    ("Cc1[nH]ccc2c1[nH]c1cc(=O)ccc12", "> 100 µM"),
    ("COc1cccc(-n2ncc3c(N/N=C/c4ccc(C(=O)NCCN(C)C)cc4)ncnc32)c1", "3.2 µM"),
    ("CC(C)[C@H]1CO[C@]2(C)[C@@H]3CN(Cc4ccccc4)C[C@@H]3C(=O)N12", "> 100 µM"),
    ("COc1ccc(/C=C2\\C(=O)N(C3OC(COC(C)=O)C(OC(C)=O)C(OC(C)=O)C3OC(C)=O)c3ccccc3N=C2N)cc1 (centres undefined)", "34 µM"),
    ("CC(=O)N1C(c2[nH]c3ccccc3c2-c2ccccc2)CCN1c1ccccc1 (centres undefined)", "> 10 µM"),
]
